Hey, just so you know, these numbers are from patent US10227323B2.

# target: UniProt:A0A8I3MXG6
# Sequence (A0A8I3MXG6 1-394): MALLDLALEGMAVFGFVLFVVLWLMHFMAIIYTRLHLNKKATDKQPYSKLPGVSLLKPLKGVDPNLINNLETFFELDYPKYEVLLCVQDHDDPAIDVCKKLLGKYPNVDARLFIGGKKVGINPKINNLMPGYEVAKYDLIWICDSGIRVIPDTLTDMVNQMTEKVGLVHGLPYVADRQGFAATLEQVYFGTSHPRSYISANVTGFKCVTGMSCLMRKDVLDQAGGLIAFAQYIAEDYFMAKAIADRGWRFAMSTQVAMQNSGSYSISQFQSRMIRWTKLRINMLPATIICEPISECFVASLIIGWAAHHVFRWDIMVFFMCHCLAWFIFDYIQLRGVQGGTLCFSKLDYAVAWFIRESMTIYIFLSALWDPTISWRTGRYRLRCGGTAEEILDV
# method.notes: Assay 1: GCS Enzymatic Assay (MDCK cell lysate, C6-NBD-Ceramide, LC/MS)
# Format: biochemical, canine
# assay.conditions: Table 2; data without asterisk; read-out: IC50 (nM) generated from Assay 1
observable: IC50

Record excerpt, results attached:
| query.smiles | experimental.value |
| --- | --- |
| O=C(N[C@H](CN1CCC1)[C@H](O)c1cc(F)c2c(c1)OCCO2)/C(CCc1ccc2ccccc2c1)=N/O | < 50 nM |
| Cc1nn(C(C)C)c2cc(-c3ccc(C(=O)C(=O)N[C@H](CN4CCCC4)[C@H](O)c4cc(F)c5c(c4)OCCO5)cc3)ccc12 | < 50 nM |
| O=C(N[C@H](CN1CCC1)[C@H](O)c1cc(F)c2c(c1)OCCO2)C(=O)c1ccc(-c2ccc3cnn(C4CC4)c3c2)cc1 | < 50 nM |
| O=C(N[C@H](CN1CCCC1)[C@H](O)c1ccc(OC2CC2)c(Cl)c1)C(F)(F)CCc1ccc2cc(F)ccc2c1 | < 50 nM |
| COc1c(F)cc([C@@H](O)[C@@H](CN2CCCC2)NC(=O)C(=O)c2cc3ccc(Cl)cc3s2)cc1OC(C)C | 50 to 5000 nM |

Ask: Entry under review: `CC(C)(C)c1ccc(-c2ccc(C(=O)C(=O)N[C@H](CN3CCC3)[C@H](O)c3cc(F)c4c(c3)OCCO4)cc2)cc1` . Reported IC50?
Reply: < 50 nM
